# system.tested: JAK3 (JH1 and JH2 domain) (Homo sapiens)
# Sequence (P52333 521-1111 limits assumed): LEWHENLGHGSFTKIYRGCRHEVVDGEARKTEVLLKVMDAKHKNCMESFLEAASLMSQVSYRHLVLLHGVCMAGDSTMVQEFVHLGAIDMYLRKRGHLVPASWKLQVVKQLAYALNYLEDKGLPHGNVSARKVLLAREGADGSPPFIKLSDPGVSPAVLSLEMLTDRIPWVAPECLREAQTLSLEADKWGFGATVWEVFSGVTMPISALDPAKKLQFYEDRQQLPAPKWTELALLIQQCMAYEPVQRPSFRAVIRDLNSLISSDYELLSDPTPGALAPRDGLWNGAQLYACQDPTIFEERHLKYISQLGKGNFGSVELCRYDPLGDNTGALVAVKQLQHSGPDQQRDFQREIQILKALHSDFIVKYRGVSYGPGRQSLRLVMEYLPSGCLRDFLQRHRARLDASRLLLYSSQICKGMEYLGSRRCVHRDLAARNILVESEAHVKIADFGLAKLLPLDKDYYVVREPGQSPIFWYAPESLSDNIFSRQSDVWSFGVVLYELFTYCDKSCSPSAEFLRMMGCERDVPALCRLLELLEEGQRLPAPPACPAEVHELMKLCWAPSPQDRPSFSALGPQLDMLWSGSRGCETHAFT
# measurement.notes: JAK3 Kinase Assay (ELISA of peptide substrate phosphorylation)
# protocol.conditions: purified JAK3 enzyme, 10 μM ATP, biotinylated peptide substrate, 1 hour at room temperature
readout.type: pIC50
Quick note: pIC50 values are minus log10 of concentrations in mol/L.

> print(dat)
                                   compound  readout.type  numeric.result
1  CN(C)C1CCN(C(=O)C2(O)Cn3c4ccccc4c4c5c(c6c7ccccc7n(c6c43)CC2O)C(=O)NC5=O)C1 (centres unmarked)         pIC50            7.82

Returns the measured pIC50 for the input compound. Input: O=C(O)/C=C/c1ccc2c(c1)c1c3c(c4c5ccccc5n5c4c1n2CC(CO)C5)CNC3=O (centres unmarked) 6.16

Returns the measured pIC50 for the input compound. Input: O=C1NCc2c1c1c3cc(CO)ccc3n3c1c1c2c2cc(CO)ccc2n1CC(CO)C3 (centres unmarked) 8.10

Returns the measured pIC50 for the input compound. Input: O=C1NCc2c1c1c3ccccc3n3c1c1c2c2ccccc2n1CCC(OC(=O)N1CCN(c2ccncc2)CC1)CC3 (centres unmarked) 5.36

Returns the measured pIC50 for the input compound. Input: COc1ccc(CCNC(=O)OC2Cn3c4ccccc4c4c5c(c6c7ccccc7n(c6c43)CC2O)C(=O)NC5=O)cc1OC (centres unmarked) 6.73

====

# system.tested: JAK3 (JH1 and JH2 domain) (Homo sapiens, UniProt P52333)
# measurement.notes: JAK3 Kinase Assay (ELISA of peptide substrate phosphorylation)
# protocol.conditions: purified JAK3 enzyme, 10 μM ATP, biotinylated peptide substrate, 1 hour at room temperature
// reported pIC50 per item
Quick note: pIC50 values are minus log10 of concentrations in mol/L.

Some compounds with recorded pIC50:
> print(dat)
                                   compound  numeric.result
1  O=C1NCc2c1c1c3ccccc3n3c1c1c2c2ccccc2n1CC(COC(=O)N1CCN(Cc2ccc4c(c2)OCO4)CC1)C3 (centres unmarked) [Cpd 170]            6.69
2  CN(C)CCNC(=O)OCC1(O)Cn2c3ccccc3c3c4c(c5c6ccccc6n(c5c32)C1)C(=O)NC4 (centres unmarked) [Cpd 173]            7.16
3  O=C1NC(=O)c2c1c1c3ccccc3n3c1c1c2c2ccccc2n1CC(O)CC3 (centres unmarked) [Cpd 7]            8.30
4  CN(C)[C@H]1CCN(C(=O)OCC2Cn3c4ccccc4c4c5c(c6c7ccccc7n(c6c43)C2)C(=O)NC5)C1 (some centres unmarked) [Cpd 171]            6.17
5  O=C1NC(=O)c2c1c1c3cc(-c4cnccn4)ccc3n3c1c1c2c2ccccc2n1CC(O)CC3 (centres unmarked) [Cpd 35]            7.89
6  CN(C)CCN(C)C(=O)OC1CCn2c3ccccc3c3c4c(c5c6ccccc6n(c5c32)C1)C(=O)NC4=O (centres unmarked) [Cpd 67]            6.61

Hello, I am looking for reported pIC50 with JAK3 (JH1 and JH2 domain) (Homo sapiens, UniProt P52333) for CN(C)CCNC(=O)OC1Cn2c3ccccc3c3c4c(c5c6ccccc6n(c5c32)CC1O)C(=O)NC4=O (centres unmarked) [Cpd 77] . Could you help? 7.07

Hello, I am looking for reported pIC50 with JAK3 (JH1 and JH2 domain) (Homo sapiens, UniProt P52333) for O=C1NCc2c1c1c3cc(CN4CCOCC4)ccc3n3c1c1c2c2ccccc2n1CC(O)C(O)C3 (centres unmarked) [Cpd 194] . Could you help? 6.30

src = patent US20070249590A1
